- Organism: Homo sapiens
- assay_remarks: Selectivity for human dopamine D2L receptor over human dopamine D4 receptor
Ratio Ki for assorted molecules
Give only the figure.

Check out these entries, answers already filled in.
{"molecule": "OC1(c2cccc(Cl)c2)CCN(Cc2c[nH]c3ccccc23)CC1", "Ratio Ki": 27}
{"molecule": "OC1(c2ccccc2Cl)CCN(Cc2c[nH]c3ccccc23)CC1", "Ratio Ki": 7}
{"molecule": "OC1(c2cccc(Cl)c2Cl)CCN(Cc2c[nH]c3ccccc23)CC1", "Ratio Ki": 59}
{"molecule": "OC1(c2ccc(-c3ccccc3)cc2)CCN(Cc2c[nH]c3ccccc23)CC1", "Ratio Ki": 1}

Problem: // query Ratio Ki value for entry CCOC(=O)C1(c2ccc(Cl)cc2)CCN(Cc2c[nH]c3ccccc23)CC1
Result: 60

Problem: // query Ratio Ki value for entry CSc1ccc(C2(O)CCN(Cc3coc4ccccc34)CC2)cc1
Result: 3

Problem: // query Ratio Ki value for entry OC1(c2ccc(Cl)cc2)CCCN(Cc2c[nH]c3ccccc23)C1 (stereo unspecified)
Result: 1

Reference source for all entries: ChEMBL document CHEMBL1138415
